- systemUnderTest: BACE1 in primary mouse cortical neurons (mouse, UniProt P56818 46-501)
- Sequence (P56818 46-501): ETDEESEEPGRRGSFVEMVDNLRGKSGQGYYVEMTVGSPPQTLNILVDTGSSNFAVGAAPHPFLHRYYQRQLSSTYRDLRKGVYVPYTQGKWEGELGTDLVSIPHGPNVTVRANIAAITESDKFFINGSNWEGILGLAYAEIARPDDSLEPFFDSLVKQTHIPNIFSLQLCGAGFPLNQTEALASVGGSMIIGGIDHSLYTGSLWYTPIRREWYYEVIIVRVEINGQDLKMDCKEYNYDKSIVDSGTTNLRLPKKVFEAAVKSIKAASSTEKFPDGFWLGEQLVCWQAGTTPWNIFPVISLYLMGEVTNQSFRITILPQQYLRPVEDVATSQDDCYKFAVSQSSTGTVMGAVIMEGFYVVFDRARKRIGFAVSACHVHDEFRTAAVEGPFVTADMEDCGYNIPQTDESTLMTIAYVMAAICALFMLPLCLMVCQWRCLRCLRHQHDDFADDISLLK
- assayOverview: cell-based or functional assay
Decide using maximal % inhibition of Abeta x-40: a value greater than or equal to 80% is Criterion met, a smaller one is Criterion not met.

>>> category("5893 (antibody, V domains shown, anti-BACE1 IgG) VH: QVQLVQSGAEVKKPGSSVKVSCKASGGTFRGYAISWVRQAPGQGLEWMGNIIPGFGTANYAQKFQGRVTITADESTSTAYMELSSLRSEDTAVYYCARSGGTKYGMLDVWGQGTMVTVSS VL: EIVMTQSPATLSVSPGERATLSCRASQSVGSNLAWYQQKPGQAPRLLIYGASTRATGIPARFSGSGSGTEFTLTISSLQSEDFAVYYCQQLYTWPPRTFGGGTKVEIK")
"Criterion not met"
>>> category("5571 (antibody, V domains shown, anti-BACE1 IgG) VH: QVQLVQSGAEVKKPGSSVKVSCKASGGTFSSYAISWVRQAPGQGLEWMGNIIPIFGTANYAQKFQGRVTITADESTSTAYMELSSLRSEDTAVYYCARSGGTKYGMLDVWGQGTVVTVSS VL: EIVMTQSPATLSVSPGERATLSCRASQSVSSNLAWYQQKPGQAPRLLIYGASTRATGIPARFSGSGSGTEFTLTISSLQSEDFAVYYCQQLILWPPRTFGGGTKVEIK")
"Criterion met"
>>> category("5887 (antibody, V domains shown, anti-BACE1 IgG) VH: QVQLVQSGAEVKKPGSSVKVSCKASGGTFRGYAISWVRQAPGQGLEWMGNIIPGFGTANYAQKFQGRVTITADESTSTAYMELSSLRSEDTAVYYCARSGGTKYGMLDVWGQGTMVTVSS VL: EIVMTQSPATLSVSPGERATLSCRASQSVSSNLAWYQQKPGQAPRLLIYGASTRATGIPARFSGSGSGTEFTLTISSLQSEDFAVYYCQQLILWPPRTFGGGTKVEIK")
"Criterion not met"

Query: Hi, just wondering whether 5643 (antibody, V domains shown) VH: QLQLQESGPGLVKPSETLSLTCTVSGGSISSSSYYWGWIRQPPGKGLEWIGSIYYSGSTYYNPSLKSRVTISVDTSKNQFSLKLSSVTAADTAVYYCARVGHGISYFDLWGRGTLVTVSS VL: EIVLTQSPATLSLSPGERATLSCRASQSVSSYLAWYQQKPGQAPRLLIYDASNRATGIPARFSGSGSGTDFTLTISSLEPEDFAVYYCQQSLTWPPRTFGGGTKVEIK shows maximal % inhibition of Abeta x-40 of 80% or higher.
Response: Criterion not met

Source: patent US20180057604A1
